# TESTED_TARGET: CCKB (Mus musculus)
# Construct: The cortex was dissected, weighed and homogenised in 40 ml ice-cold buffer; from tissue; host or cells: cerebral cortex membranes of male CD1 mice (Charles River)
# Sequence (P56481 1-453): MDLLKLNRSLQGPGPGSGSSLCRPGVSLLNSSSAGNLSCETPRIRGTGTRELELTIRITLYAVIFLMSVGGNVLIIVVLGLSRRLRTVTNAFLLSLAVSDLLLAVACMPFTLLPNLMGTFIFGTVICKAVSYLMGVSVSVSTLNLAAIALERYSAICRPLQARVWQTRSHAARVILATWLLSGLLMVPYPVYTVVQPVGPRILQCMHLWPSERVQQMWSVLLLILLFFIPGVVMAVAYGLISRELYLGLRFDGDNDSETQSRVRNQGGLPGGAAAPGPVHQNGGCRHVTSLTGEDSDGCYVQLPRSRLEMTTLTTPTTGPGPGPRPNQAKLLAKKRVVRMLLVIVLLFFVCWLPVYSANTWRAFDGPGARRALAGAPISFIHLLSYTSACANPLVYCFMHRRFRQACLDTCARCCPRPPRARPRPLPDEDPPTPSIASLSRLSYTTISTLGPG
# ASSAY_COMMENT: radioligand binding assay at the CCKB (CCK8 [sic]) receptor in mouse cortical membranes
# CONDITION_SUMMARY: [125I]-CCK8S 200 pM, 150 min at 21±3° C., read-out: CCKB pKi (converted)
Give measured log10 of Ki for each item. Keep answers brief.
Please keep in mind that the values are log10 of Ki expressed in nM.

Q: # query: log10 of Ki of entry "Nc1ccc(C(=O)NCC23CC4CC(CC(C4)C2)C3)c(C(=O)N[C@@H](Cc2ccccc2)C(=O)Nc2cc(C(=O)O)cc(C(=O)O)c2)c1"
Result: 1.70

Q: # query: log10 of Ki of entry "O=C(Cc1ccccc1C(=O)N[C@@H](Cc1ccccc1)C(=O)Nc1cc(C(=O)O)cc(C(=O)O)c1)NCC12CC3CC(CC(C3)C1)C2"
Result: 2.40

Q: # query: log10 of Ki of entry "COc1ccc(C(=O)NCC23CC4CC(CC(C4)C2)C3)c(C(=O)N[C@@H](Cc2ccccc2)C(=O)Nc2cc(C(=O)O)cc(C(=O)O)c2)c1"
Result: 2.20

Q: # query: log10 of Ki of entry "O=C(Cc1ccccc1C(=O)NCC12CC3CC(CC(C3)C1)C2)N[C@@H](Cc1ccccc1)C(=O)Nc1cc(C(=O)O)cc(C(=O)O)c1"
Result: 2.20

Q: # query: log10 of Ki of entry "O=C(O)c1cc(NC(=O)[C@H](Cc2ccc(O)cc2)NC(=O)c2ccccc2C(=O)NCC23CC4CC(CC(C4)C2)C3)cc(C(=O)O)c1"
Result: 3.10

Q: # query: log10 of Ki of entry "Nc1ccc(C(=O)N[C@@H](Cc2ccccc2)C(=O)Nc2cc(C(=O)O)cc(C(=O)O)c2)c(C(=O)NCC23CC4CC(CC(C4)C2)C3)c1"
Result: 2.30

Q: # query: log10 of Ki of entry "COc1ccc(C(=O)N[C@@H](Cc2ccccc2)C(=O)Nc2cc(C(=O)O)cc(C(=O)O)c2)c(C(=O)NCC23CC4CC(CC(C4)C2)C3)c1"
Result: 1.40

Q: # query: log10 of Ki of entry "O=C(O)c1cc(NC(=O)[C@H](Cc2ccccc2)N2Cc3cccc(C(=O)NCC45CC6CC(CC(C6)C4)C5)c3C2=O)cc(C(=O)O)c1"
Result: 2.10
